experiment: Efflux ratio of permeability from basolateral to apical side over apical to basolateral side in MDCK cells; type: ADME, cell-based, Canis lupus familiaris; settings: dog
PARAMETER: efflux ratio
I'd appreciate a reply containing only the number, no unit.

In the examples that follow, each entry is paired with its recorded efflux ratio.
SAMPLE SMILES: CC1(C)OCc2c(Nc3n[nH]c4c(Cl)c(F)ccc34)nc(-c3cn[nH]c3)nc21
RESULT NUMBER: 1.1
//
SAMPLE SMILES: Cn1nccc1-c1nc(Nc2n[nH]c3ccccc23)c2c(n1)C(C)(C)OC2
RESULT NUMBER: 0.9
//
SAMPLE SMILES: CC1(C)OCc2c(Nc3n[nH]c4c(Cl)cccc34)nc(-c3cn[nH]c3C(F)F)nc21
RESULT NUMBER: 0.7

[in] Name the recorded efflux ratio for CC1(C)OCc2c(Nc3n[nH]c4cc(C(F)(F)F)ccc34)nc(-c3cn[nH]c3)nc21 .
[out] 1.5

[in] Name the recorded efflux ratio for CC1(C)OCc2c(Nc3n[nH]c4c(C(F)(F)F)cccc34)nc(-c3cn[nH]c3)nc21 .
[out] 1.3

[in] Name the recorded efflux ratio for CC1(C)OCc2c(Nc3n[nH]c4ccccc34)nc(-c3cn[nH]c3)nc21 .
[out] 2.4

[in] Name the recorded efflux ratio for CC1(C)OCc2c(Nc3n[nH]c4c(Cl)cccc34)nc(-c3cn[nH]c3)nc21 .
[out] 1.6

----------
experiment: Volume of distribution at steady state in rat; format: ADME, organism-based; conditions: in vivo, read-out: Vdss
PARAMETER: Vd (L/kg)
A number alone suffices; assume L/kg.

In the examples that follow, each entry is paired with its recorded Vd.
SAMPLE SMILES: CC1(C)OCc2c(Nc3n[nH]c4cc(C(F)(F)F)ccc34)nc(-c3cn[nH]c3)nc21
PARAMETER: Vd
UNIT OF MEASURE: L/kg
RESULT NUMBER: 1.2
--
SAMPLE SMILES: Cn1nc(Nc2nc(-c3cn[nH]c3)nc3c2COC3(C)C)c2cccc(F)c21
PARAMETER: Vd
UNIT OF MEASURE: L/kg
RESULT NUMBER: 1.5
--
SAMPLE SMILES: CC1(C)OCc2c(Nc3n[nH]c4c(Cl)cccc34)nc(-c3cn[nH]c3)nc21
PARAMETER: Vd
UNIT OF MEASURE: L/kg
RESULT NUMBER: 3.6
--
SAMPLE SMILES: CC1(C)OCc2c(Nc3n[nH]c4ccccc34)nc(-c3cn[nH]c3)nc21
PARAMETER: Vd
UNIT OF MEASURE: L/kg
RESULT NUMBER: 6

[in] Name the recorded Vd for CC1(C)OCc2c(Nc3n[nH]c4ccc(F)cc34)nc(-c3cn[nH]c3)nc21 .
[out] 6.8

----------
target: Epidermal growth factor receptor (Homo sapiens, UniProt P00533, L858R/T790M); assay: Inhibition of EGFR T790M/L858R mutant (unknown origin)
Sequence (P00533 25-1210 T790M/L858R limits assumed): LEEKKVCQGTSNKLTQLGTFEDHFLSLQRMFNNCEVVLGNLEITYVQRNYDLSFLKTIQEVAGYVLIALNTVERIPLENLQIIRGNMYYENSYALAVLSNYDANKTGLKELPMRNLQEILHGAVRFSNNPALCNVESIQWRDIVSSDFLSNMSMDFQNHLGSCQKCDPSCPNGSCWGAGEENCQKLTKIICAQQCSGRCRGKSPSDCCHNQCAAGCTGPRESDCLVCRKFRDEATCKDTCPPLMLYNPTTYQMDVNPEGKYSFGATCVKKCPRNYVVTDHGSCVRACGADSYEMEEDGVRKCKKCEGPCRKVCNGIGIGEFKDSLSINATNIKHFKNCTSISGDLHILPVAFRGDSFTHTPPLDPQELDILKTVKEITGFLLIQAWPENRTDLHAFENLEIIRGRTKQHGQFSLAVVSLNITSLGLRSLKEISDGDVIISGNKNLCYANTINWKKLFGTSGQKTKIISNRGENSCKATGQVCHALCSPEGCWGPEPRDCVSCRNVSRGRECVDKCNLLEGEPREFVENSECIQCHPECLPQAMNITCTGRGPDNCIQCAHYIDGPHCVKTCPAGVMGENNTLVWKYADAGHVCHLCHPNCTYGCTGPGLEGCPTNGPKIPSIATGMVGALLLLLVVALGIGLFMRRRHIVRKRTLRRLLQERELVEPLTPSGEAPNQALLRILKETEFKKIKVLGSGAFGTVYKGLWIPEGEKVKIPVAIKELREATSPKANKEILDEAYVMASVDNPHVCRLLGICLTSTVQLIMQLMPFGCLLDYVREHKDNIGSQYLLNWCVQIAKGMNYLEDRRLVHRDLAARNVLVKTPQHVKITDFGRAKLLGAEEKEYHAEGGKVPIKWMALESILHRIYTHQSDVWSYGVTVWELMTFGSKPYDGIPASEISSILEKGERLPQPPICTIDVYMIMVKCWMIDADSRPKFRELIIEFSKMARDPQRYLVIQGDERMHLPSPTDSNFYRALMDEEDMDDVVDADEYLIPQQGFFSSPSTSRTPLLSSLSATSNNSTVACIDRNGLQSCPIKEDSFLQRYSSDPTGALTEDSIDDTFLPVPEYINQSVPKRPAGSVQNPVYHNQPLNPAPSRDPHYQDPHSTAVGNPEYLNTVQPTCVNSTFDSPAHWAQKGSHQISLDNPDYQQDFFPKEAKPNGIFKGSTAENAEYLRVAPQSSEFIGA
pKi: −log10 of the molar value.
Catalogue of compounds with associated pKi

SAMPLE SMILES: CC1(C)OCc2c(Nc3n[nH]c4cc(C(F)(F)F)ccc34)nc(-c3cn[nH]c3)nc21
pKi: < 5.70
--
SAMPLE SMILES: CC1(C)OCc2c(Nc3n[nH]c4c3CCCC4)nc(-c3cn[nH]c3)nc21
pKi: < 5.70

Here is the next item to consider.
[in] Which pKi is reported with Epidermal growth factor receptor (Homo sapiens, UniProt P00533, L858R/T790M) for this entry: CC1(C)OCc2c(Nc3n[nH]c4ccncc34)nc(-c3cn[nH]c3)nc21 ?
[out] < 5.70

Taken from ChEMBL document CHEMBL3758169.
